PROTOCOL: tissue levels by HPLC after oral administration to rats
Assay type: in vivo
PROTOCOL_CONDITIONS: heart; rat, 50 mg/kg oral, 1 h; read-out: Tissue level, heart
READOUT_NAME: concentration at 1 h
Your answer should be a number followed by the unit of measure.

Exercise: Using the record for `CN1CCN(c2c(F)cc3c(=O)c(C(=O)O)cn4c3c2SCC4)CC1` , report its concentration at 1 h.
Solution: 31400 ng/mL

----------
PROTOCOL: tissue levels by HPLC after oral administration to rats
Format: in vivo
PROTOCOL_CONDITIONS: kidney; rat, 50 mg/kg oral, 1 h; read-out: Tissue level, kidney
READOUT_NAME: concentration at 1 h (µg/mL)
Give bare numbers, in µg/mL.

Exercise: Using the record for CN1CCN(c2c(F)cc3c(=O)c(C(=O)O)cn4c3c2SCC4)CC1 [Compound (h)] , report its concentration at 1 h.
Solution: 61.2

Source: patent US4684647A
